Target: Tyrosine-protein kinase receptor UFO (Homo sapiens) (UniProt P30530)
Sequence (P30530 whole entry, the tested form may be a part): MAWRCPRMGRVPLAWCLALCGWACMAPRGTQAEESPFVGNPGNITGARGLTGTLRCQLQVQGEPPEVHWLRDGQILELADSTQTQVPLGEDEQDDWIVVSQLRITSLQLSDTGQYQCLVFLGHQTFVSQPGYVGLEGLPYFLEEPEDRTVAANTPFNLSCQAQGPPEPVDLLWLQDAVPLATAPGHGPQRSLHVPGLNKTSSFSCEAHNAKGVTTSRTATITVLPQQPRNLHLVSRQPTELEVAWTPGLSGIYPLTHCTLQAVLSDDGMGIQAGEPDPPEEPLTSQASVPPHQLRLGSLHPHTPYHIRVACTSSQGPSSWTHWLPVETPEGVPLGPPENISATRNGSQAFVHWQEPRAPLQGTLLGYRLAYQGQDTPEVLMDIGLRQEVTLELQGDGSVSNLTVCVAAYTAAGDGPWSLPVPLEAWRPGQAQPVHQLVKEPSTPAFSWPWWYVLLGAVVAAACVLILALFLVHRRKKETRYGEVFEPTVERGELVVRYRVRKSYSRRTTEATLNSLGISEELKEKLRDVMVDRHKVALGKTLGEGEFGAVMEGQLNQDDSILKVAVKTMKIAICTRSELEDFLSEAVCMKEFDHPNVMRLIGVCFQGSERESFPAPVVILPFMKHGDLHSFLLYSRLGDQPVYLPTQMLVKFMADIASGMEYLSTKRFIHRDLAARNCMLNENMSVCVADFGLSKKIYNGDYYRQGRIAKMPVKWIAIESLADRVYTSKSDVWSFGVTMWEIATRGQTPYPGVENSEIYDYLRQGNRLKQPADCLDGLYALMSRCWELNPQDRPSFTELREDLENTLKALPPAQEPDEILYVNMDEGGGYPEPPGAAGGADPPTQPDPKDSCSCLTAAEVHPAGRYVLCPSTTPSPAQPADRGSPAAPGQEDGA
Assay: Binding affinity to human AXL (R497 to Y821 residues) expressed in bacterial expression system assessed as fraction of unbound kinase to substrate at 0.1 uM after 1 hr by KinomeScan assay
MEASURED ATTRIBUTE: Activity (%)

INSERT INTO results (molecule, measured_attribute, assay_result) VALUES
  ('Cc1cnc2[nH]cnc2c1Oc1ccc(NC(=O)c2cccn(-c3ccc(F)cc3)c2=O)cc1F', 'Activity', 22),
  ('CC(C)c1nc2c(Oc3ccc(NC(=O)c4cccn(-c5ccc(F)cc5)c4=O)cc3F)ccnc2[nH]1', 'Activity', 61),
  ('O=C(Nc1ccc(Oc2ccnc3[nH]cnc23)c(F)c1)c1cccn(-c2ccc(F)cc2)c1=O', 'Activity', 78),
  ('O=C(Nc1ccc(Oc2c(Br)cnc3[nH]cnc23)c(F)c1)c1cccn(-c2ccc(F)cc2)c1=O', 'Activity', 4);

====

Molecular target: Hepatocyte growth factor receptor (Homo sapiens) (UniProt P08581)
Sequence (P08581 whole entry, the tested form may be a part): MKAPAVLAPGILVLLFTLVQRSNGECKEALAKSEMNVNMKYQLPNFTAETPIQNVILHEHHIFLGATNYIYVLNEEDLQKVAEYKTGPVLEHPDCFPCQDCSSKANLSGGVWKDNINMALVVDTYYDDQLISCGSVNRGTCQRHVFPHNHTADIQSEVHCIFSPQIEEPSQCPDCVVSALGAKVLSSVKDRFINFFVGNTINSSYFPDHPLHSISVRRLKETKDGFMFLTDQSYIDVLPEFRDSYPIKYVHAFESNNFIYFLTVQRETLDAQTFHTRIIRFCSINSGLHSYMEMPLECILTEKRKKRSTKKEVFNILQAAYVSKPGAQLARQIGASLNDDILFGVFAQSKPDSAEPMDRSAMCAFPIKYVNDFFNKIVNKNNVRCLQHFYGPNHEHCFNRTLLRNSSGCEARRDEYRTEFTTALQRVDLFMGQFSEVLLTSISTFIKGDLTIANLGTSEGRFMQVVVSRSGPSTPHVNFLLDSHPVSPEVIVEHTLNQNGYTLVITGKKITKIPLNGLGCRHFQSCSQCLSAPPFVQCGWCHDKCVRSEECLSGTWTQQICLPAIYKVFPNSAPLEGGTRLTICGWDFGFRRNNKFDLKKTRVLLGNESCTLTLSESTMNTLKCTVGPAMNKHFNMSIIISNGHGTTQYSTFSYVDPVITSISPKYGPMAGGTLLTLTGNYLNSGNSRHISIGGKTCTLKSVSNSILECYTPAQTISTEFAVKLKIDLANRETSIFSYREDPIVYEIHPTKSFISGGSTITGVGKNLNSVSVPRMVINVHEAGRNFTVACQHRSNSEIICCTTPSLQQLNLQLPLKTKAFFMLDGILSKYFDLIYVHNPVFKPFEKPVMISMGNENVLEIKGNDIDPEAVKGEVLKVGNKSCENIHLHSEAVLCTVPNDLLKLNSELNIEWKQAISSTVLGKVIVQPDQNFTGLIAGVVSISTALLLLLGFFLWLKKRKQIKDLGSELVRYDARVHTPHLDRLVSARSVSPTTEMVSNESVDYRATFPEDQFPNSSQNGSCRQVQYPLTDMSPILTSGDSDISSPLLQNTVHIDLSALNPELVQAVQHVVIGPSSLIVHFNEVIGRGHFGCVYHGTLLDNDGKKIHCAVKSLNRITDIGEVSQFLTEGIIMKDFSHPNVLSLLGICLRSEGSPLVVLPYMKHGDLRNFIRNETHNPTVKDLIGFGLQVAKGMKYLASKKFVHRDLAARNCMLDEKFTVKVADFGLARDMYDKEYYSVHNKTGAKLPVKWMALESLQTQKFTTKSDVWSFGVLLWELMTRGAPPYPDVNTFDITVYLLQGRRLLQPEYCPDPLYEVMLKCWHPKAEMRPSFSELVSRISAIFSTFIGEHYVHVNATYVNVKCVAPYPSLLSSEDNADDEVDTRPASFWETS
Assay: Binding affinity to human MET (D1010 to S1367 residues) expressed in bacterial expression system assessed as fraction of unbound kinase to substrate at 0.1 uM after 1 hr by KinomeScan assay
MEASURED ATTRIBUTE: Activity (%)

INSERT INTO results (molecule, measured_on, units_label, assay_result) VALUES
  ('Cc1cnc2[nH]cnc2c1Oc1ccc(NC(=O)c2cccn(-c3ccc(F)cc3)c2=O)cc1F', 'Hepatocyte growth factor receptor (Homo sapiens) (UniProt P08581)', '%', 54),
  ('CC(C)c1nc2c(Oc3ccc(NC(=O)c4cccn(-c5ccc(F)cc5)c4=O)cc3F)ccnc2[nH]1', 'Hepatocyte growth factor receptor (Homo sapiens) (UniProt P08581)', '%', 83),
  ('O=C(Nc1ccc(Oc2c(Br)cnc3[nH]cnc23)c(F)c1)c1cccn(-c2ccc(F)cc2)c1=O', 'Hepatocyte growth factor receptor (Homo sapiens) (UniProt P08581)', '%', 12),
  ('O=C(Nc1ccc(Oc2ccnc3[nH]cnc23)c(F)c1)c1cccn(-c2ccc(F)cc2)c1=O', 'Hepatocyte growth factor receptor (Homo sapiens) (UniProt P08581)', '%', 83);

====

Target: Cyclin-dependent kinase 2 (Homo sapiens)
Assay: Binding affinity to wild-type human full length CDK2 (M1 to L298 residues) expressed in bacterial expression system assessed as fraction of unbound kinase to substrate at 10 uM after 1 hr by KinomeScan assay
MEASURED ATTRIBUTE: Activity (%)

INSERT INTO measurements (molecule, measured_on, measured_attribute, assay_result) VALUES
  ('O=C(Nc1ccc(Oc2ccnc3[nH]cnc23)c(F)c1)c1cccn(-c2ccc(F)cc2)c1=O', 'Cyclin-dependent kinase 2 (Homo sapiens)', 'Activity', 48),
  ('Cc1cnc2[nH]cnc2c1Oc1ccc(NC(=O)c2cccn(-c3ccc(F)cc3)c2=O)cc1F', 'Cyclin-dependent kinase 2 (Homo sapiens)', 'Activity', 3),
  ('O=C(Nc1ccc(Oc2c(Br)cnc3[nH]cnc23)c(F)c1)c1cccn(-c2ccc(F)cc2)c1=O', 'Cyclin-dependent kinase 2 (Homo sapiens)', 'Activity', 32),
  ('CC(C)c1nc2c(Oc3ccc(NC(=O)c4cccn(-c5ccc(F)cc5)c4=O)cc3F)ccnc2[nH]1', 'Cyclin-dependent kinase 2 (Homo sapiens)', 'Activity', 99.7);

====

Target: Tyrosine-protein kinase receptor TYRO3 (Homo sapiens)
Sequence (Q06418 whole entry, the tested form may be a part): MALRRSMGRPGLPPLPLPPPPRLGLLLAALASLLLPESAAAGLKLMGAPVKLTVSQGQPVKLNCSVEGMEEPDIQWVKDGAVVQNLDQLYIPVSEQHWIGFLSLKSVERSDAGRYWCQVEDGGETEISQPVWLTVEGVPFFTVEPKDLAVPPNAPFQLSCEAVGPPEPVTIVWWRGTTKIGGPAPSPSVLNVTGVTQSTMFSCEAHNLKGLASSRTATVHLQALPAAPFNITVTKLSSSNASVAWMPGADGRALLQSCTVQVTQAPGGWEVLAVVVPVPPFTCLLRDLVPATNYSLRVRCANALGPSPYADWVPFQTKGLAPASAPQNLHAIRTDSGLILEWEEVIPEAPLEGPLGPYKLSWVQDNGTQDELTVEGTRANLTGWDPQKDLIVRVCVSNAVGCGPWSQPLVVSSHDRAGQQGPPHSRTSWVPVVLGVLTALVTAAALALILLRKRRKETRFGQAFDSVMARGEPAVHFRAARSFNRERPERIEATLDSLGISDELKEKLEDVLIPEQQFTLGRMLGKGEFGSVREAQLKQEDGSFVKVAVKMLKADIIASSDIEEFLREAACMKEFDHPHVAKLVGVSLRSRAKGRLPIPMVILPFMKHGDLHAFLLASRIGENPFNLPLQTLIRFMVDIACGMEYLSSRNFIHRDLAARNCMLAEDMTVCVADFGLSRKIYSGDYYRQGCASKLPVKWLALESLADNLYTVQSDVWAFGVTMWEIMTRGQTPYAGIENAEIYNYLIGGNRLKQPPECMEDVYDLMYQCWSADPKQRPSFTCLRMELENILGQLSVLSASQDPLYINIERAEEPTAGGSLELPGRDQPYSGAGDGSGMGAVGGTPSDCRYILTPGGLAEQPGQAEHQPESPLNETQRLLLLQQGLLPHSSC
Experiment: Inhibition of recombinant GST-tagged human Tyro3 (451 to 890 residues) cytoplasmic domain expressed in Baculovirus expression system using poly (Glu-Ala-Tyr) peptide as substrate after 5 mins in presence of ADP by fluorescence analysis
Each entry below carries its reported IC50.
MEASURED ATTRIBUTE: IC50 (nM)

INSERT INTO measurements (molecule, units_label, bound_sign, assay_result) VALUES
  ('O=C(Nc1ccc(Oc2c(Br)cnc3[nH]cnc23)c(F)c1)c1cccn(-c2ccc(F)cc2)c1=O', 'nM', '=', 270),
  ('CC(C)c1nc2c(Oc3ccc(NC(=O)c4cccn(-c5ccc(F)cc5)c4=O)cc3F)ccnc2[nH]1', 'nM', '=', 4700),
  ('Cc1cnc2[nH]cnc2c1Oc1ccc(NC(=O)c2cccn(-c3ccc(F)cc3)c2=O)cc1F', 'nM', '>', 100000),
  ('O=C(Nc1ccc(Oc2ccnc3[nH]cnc23)c(F)c1)c1cccn(-c2ccc(F)cc2)c1=O', 'nM', '=', 690);
